Cited source for all entries: PubChem BioAssay (Tox21)

Test details: qHTS assay to identify small molecule agonists of the retinoic acid receptor (RAR) signaling pathway (AID 1159553); note: % is set by controls: 0 for no effect and ±100 for the full control effect
Measurement parameters: C3RL4 RARE luciferase reporter, agonist, 6 h; series mostly up to 73.3 µM
Results filed as inconclusive are left out. Activity calls are given as the source filed them. Calls come from the whole dose curve; as a rule, active = well fitted activation curve with a large enough effect in the repeat runs; inconclusive = weak or mixed curves, or effect the other way; inactive = no such curve, though single readings can be large or run the other way.

{"Compound": "CC(=O)OC(C)OC(=O)C(C)c1ccc(-c2ccccc2)c(F)c1 (stereo not drawn)", "outcome": "inactive"}
{"Compound": "CC(C)C[C@H](NC(=O)CNC(=O)[C@H](Cc1ccc(O)cc1)NC(=O)[C@H](CO)NC(=O)[C@H](Cc1c[nH]c2ccccc12)NC(=O)[C@H](Cc1cnc[nH]1)NC(=O)[C@@H]1CCC(=O)N1)C(=O)N[C@@H](CCCN=C(N)N)C(=O)N1CCC[C@H]1C(=O)NCC(N)=O (stereo in doubt)", "outcome": "inactive"}
{"Compound": "Nc1ccc([N+](=O)[O-])c(N)c1", "outcome": "inactive"}

###

Test details: qHTS assay to identify small molecule antagonists of the estrogen receptor alpha (ER-alpha) signaling pathway using the BG1 cell line in the presence of 0.1 nM 17-beta-estradiol - cell viability counter screen (AID 1259241); note: % is set by controls: 0 for no effect and ±100 for the full control effect; nearly all actives have a fitted effect of over 40% in size
Measurement parameters: VM7Luc4E2 (BG1) viability, CellTiter-Fluor protease, 22 h, 0.1 nM estradiol agonist added; series mostly up to 92.4 µM
Inconclusive results are not listed. The source made the active and inactive calls. Calls come from the whole dose curve; as a rule, active = well fitted cell-killing curve with a large enough effect in the repeat runs; inconclusive = weak or mixed curves, or effect the other way; inactive = flat fitted curve, though single readings scatter.

{"Molecule": "N[C@@H](CCC(=O)Nc1ccc([N+](=O)[O-])cc1)C(=O)O", "activity change, negative = cytotoxicity": "inactive"}
{"Molecule": "Oc1cn2c(n1)Nc1ccc(Cl)c(Cl)c1C2", "activity change, negative = cytotoxicity": "0.999% [at 19 µM] (inactive)"}
{"Molecule": "Cc1ccccc1C(=O)Nc1ccc(C(=O)N2CCCC(N(C)C)c3ccccc32)cc1 (stereo not drawn)", "activity change, negative = cytotoxicity": "inactive"}
{"Molecule": "Brc1ccc(-c2ccccc2)cc1", "activity change, negative = cytotoxicity": "inactive"}
{"Molecule": "O=C(OCC1(COC(=O)c2cccnc2)CCCC(COC(=O)c2cccnc2)(COC(=O)c2cccnc2)C1O)c1cccnc1", "activity change, negative = cytotoxicity": "inactive"}
{"Molecule": "CCC(CC)CO", "activity change, negative = cytotoxicity": "inactive"}
{"Molecule": "CCCCCCCCSCC", "activity change, negative = cytotoxicity": "inactive"}
{"Molecule": "OCCN(CCO)c1cccc(Cl)c1", "activity change, negative = cytotoxicity": "inactive"}
{"Molecule": "Nc1nnc(-c2cccc(Cl)c2Cl)c(N)n1", "activity change, negative = cytotoxicity": "inactive"}
{"Molecule": "N[C@@H](CCC(=O)N[C@@H](CS)C(=O)NCC(=O)O)C(=O)O", "activity change, negative = cytotoxicity": "-2.09% [at 19 µM] (inactive)"}
{"Molecule": "CC(=O)N[C@@H](CCC(=O)O)C(=O)O", "activity change, negative = cytotoxicity": "inactive"}
{"Molecule": "O=P(O)(O)OP(=O)(O)O", "activity change, negative = cytotoxicity": "inactive"}
{"Molecule": "CC(C)c1ccc2cc(C(C)C)ccc2c1", "activity change, negative = cytotoxicity": "inactive"}

###

Test details: qHTS assay to identify small molecule antagonists of the retinoid acid receptor (RAR) signaling pathway - cell viability counter screen (AID 1159551); note: % is set by controls: 0 for no effect and ±100 for the full control effect; nearly all actives have a fitted effect of over 35% in size
Measurement parameters: C3RL4 cells viability, ATP luminescence (CellTiter-Glo), 6 h; series mostly up to 92.4 µM
Results filed as inconclusive are left out. Active and inactive are the calls of the source. The call rests on the fitted dose curve; in most records, active means well fitted cell-killing curve with a large enough effect in the repeat runs; inconclusive means weak or mixed curves, or effect the other way; inactive means flat fitted curve, though single readings scatter.

{"Compound": "COc1ccc(-c2cc(=O)c3c(O)cc(O[C@@H]4O[C@H](CO[C@@H]5O[C@@H](C)[C@H](O)[C@@H](O)[C@H]5O)[C@@H](O)[C@H](O)[C@H]4O)cc3o2)cc1O", "activity change, negative = cytotoxicity": "inactive"}
{"Compound": "COc1cc2c(cc1OC)[C@@H]1CC(=O)[C@@H](CC(C)C)CN1CC2", "activity change, negative = cytotoxicity": "inactive"}
{"Compound": "NC(CO)C(=O)NNCc1ccc(O)c(O)c1O (stereo not given)", "activity change, negative = cytotoxicity": "inactive"}
{"Compound": "CCCOC(OCCC)OCCC", "activity change, negative = cytotoxicity": "inactive"}
{"Compound": "COc1ccc2nc(SCc3ncc(C)c(OC)c3C)[nH]c2c1", "activity change, negative = cytotoxicity": "inactive"}

###

Test details: qHTS assay to identify small molecule antagonists of the thyroid receptor (TR) signaling pathway - cell viability counter screen (AID 743064); note: % is set by controls: 0 for no effect and ±100 for the full control effect; nearly all actives have a fitted effect of over 50% in size
Measurement parameters: GH3.TRE-Luc viability, CellTiter-Fluor, 24 h; series mostly up to 70.3 µM
Inconclusive results are not listed. The source made the active and inactive calls. Calls come from the whole dose curve; as a rule, active = well fitted cell-killing curve with a large enough effect in the repeat runs; inconclusive = weak or mixed curves, or effect the other way; inactive = no such curve, though single readings can be large or run the other way.

{"Compound": "COCCOC(=O)C1=C(C)NC(C)=C(C(=O)OC(C)C)C1c1cccc([N+](=O)[O-])c1 (stereo not given)", "outcome": "inactive"}
{"Compound": "C=C(C)C(=O)OCC(C)(C)COC(=O)C(=C)C", "outcome": "inactive"}
{"Compound": "CC(C)(C)c1cc(CCC(=O)NN)cc(C(C)(C)C)c1O", "outcome": "inactive"}
{"Compound": "CC(C)(C)NC(N)=O", "outcome": "inactive"}
{"Compound": "Brc1ccc(-c2ccccc2)cc1", "outcome": "inactive"}
{"Compound": "Cc1cc(NC(=O)C2=C(O)c3ccccc3S(=O)(=O)N2C)no1", "outcome": "inactive"}
{"Compound": "CCCC/C=C/C=C\\C=O", "outcome": "inactive"}
{"Compound": "CCOC(=O)[C@H](CCc1ccccc1)N[C@@H](C)C(=O)N1C(=O)N(C)C[C@H]1C(=O)O", "outcome": "inactive"}
{"Compound": "O=C(O)c1cc(Cl)cc([N+](=O)[O-])c1Cl", "outcome": "inactive"}
{"Compound": "CNC(=O)[C@H]1O[C@@H](n2cnc3c(NCc4cc(Cl)ccc4OCc4cc(C)no4)ncnc32)[C@H](O)[C@@H]1N", "outcome": "inactive"}
{"Compound": "CCCCCCCCSCC", "outcome": "inactive"}
{"Compound": "Cc1c(I)c(=O)n(-c2ccccc2)n1C", "outcome": "inactive"}
{"Compound": "O=C(O)C(=O)Cc1ccccc1", "outcome": "inactive"}
{"Compound": "CCNC(=O)C1CC(C)CCC1C(C)C (stereo not given)", "outcome": "inactive"}
{"Compound": "NCCS", "outcome": "inactive"}
{"Compound": "CC(C)CCCC(C)(C)O", "outcome": "inactive"}
{"Compound": "Cc1cc(Cl)c(C)cc1Cl", "outcome": "inactive"}
{"Compound": "CCCCCCOc1ccccc1C(N)=O", "outcome": "inactive"}
{"Compound": "Cc1cccc(C)c1NC(=O)c1ccccc1C(=O)O", "outcome": "inactive"}
{"Compound": "CCOC(=O)c1ncn2c1CN(C)C(=O)c1cc(F)ccc1-2", "outcome": "inactive"}
{"Compound": "CC(CC=O)CCCC(C)(C)O (stereo not given)", "outcome": "inactive"}
{"Compound": "COc1ccc2c(c1)C(=O)N(CCc1ccc(S(=O)(=O)NC(=O)NC3CCCCC3)cc1)C(=O)C2(C)C", "outcome": "inactive"}
{"Compound": "OCCN(CCO)c1cccc(Cl)c1", "outcome": "inactive"}
{"Compound": "CC(C)C[C@H](NC(=O)CNC(=O)[C@H](Cc1ccc(O)cc1)NC(=O)[C@H](CO)NC(=O)[C@H](Cc1c[nH]c2ccccc12)NC(=O)[C@H](Cc1cnc[nH]1)NC(=O)[C@@H]1CCC(=O)N1)C(=O)N[C@@H](CCCN=C(N)N)C(=O)N1CCC[C@H]1C(=O)NCC(N)=O (stereo in doubt)", "outcome": "inactive"}
{"Compound": "COC(=O)CCc1ccc(OCC(O)CNC(C)C)cc1 (stereo not given)", "outcome": "inactive"}

###

Tested on: Cytochrome P450 2C19 (Homo sapiens) (UniProt P33261)
Sequence (P33261 whole entry, looked up): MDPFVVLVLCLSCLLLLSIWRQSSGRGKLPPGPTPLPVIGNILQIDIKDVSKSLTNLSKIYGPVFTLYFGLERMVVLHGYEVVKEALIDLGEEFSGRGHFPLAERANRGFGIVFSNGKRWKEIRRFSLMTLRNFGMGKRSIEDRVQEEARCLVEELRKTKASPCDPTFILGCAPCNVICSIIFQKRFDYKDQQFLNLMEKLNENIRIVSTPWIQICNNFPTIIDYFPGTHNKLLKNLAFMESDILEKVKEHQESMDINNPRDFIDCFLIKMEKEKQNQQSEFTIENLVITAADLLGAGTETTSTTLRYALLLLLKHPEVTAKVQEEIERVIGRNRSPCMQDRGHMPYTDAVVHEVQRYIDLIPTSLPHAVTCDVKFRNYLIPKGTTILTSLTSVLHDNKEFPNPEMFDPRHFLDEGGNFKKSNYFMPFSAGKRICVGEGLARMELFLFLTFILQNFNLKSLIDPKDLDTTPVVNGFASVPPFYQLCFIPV
Test details: Cytochrome P450 Family 2 Subfamily C Member 19 (CYP2C19) small molecule antagonists: luciferase reporter qHTS assay (AID 1671197); note: nearly all actives have a fitted effect of over 65% in size
Measurement parameters: P450-Glo CYP2C19 enzyme, luciferin luminescence, 1 h; series mostly up to 115 µM
Inconclusive results are not listed. Activity calls are given as the source filed them. The call rests on the fitted dose curve; in most records, active means well fitted inhibition curve with a large enough effect in the repeat runs; inconclusive means weak or mixed curves; inactive means no such curve, though single readings can be large or run the other way.
Possible outcomes: active, inactive

{"Molecule": "O=C(Nc1ccc(Cl)c(Cl)c1)C1CC1", "Group label": "active"}
{"Molecule": "C=C(C)C(=O)OCCNC(C)(C)C", "Group label": "active"}
{"Molecule": "C=C(C)C1CCC(C)(O)CC1 (configuration not stated)", "Group label": "inactive"}
{"Molecule": "CC[C@H](C)C(=O)O[C@H]1C[C@H](O)C=C2C=C[C@H](C)[C@H](CC[C@@H](O)C[C@@H](O)CC(=O)O)[C@H]21", "Group label": "inactive"}
{"Molecule": "CCCCCCOc1ccccc1C(N)=O", "Group label": "active"}
{"Molecule": "CCCCNC1CC(C)(C)NC(C)(C)C1", "Group label": "inactive"}
{"Molecule": "Cc1cccc2nccnc12", "Group label": "inactive"}
{"Molecule": "CC(=O)CCCCn1c(=O)c2c(ncn2C)n(C)c1=O", "Group label": "inactive"}
{"Molecule": "CN(C)c1ccc(C=O)cc1", "Group label": "active"}
{"Molecule": "NS(=O)(=O)c1cc2c(cc1Cl)CN(C1CCCCC1)C2=O", "Group label": "inactive"}
{"Molecule": "COc1ccc(S(=O)(=O)N2c3ccc(Cl)cc3[C@@](O)(c3ccccc3Cl)[C@H]2C(=O)N2CCC[C@@H]2C(N)=O)cc1OC", "Group label": "inactive"}
{"Molecule": "CC(C)CCCCOC(=O)c1ccccc1C(=O)OCCCCC(C)C", "Group label": "active"}
